The measurements presented in this section are drawn from ChEMBL document CHEMBL1141151.

- experimentalSystem: Receptor tyrosine-protein kinase erbB-2 (Homo sapiens)
- Sequence (P04626 whole entry): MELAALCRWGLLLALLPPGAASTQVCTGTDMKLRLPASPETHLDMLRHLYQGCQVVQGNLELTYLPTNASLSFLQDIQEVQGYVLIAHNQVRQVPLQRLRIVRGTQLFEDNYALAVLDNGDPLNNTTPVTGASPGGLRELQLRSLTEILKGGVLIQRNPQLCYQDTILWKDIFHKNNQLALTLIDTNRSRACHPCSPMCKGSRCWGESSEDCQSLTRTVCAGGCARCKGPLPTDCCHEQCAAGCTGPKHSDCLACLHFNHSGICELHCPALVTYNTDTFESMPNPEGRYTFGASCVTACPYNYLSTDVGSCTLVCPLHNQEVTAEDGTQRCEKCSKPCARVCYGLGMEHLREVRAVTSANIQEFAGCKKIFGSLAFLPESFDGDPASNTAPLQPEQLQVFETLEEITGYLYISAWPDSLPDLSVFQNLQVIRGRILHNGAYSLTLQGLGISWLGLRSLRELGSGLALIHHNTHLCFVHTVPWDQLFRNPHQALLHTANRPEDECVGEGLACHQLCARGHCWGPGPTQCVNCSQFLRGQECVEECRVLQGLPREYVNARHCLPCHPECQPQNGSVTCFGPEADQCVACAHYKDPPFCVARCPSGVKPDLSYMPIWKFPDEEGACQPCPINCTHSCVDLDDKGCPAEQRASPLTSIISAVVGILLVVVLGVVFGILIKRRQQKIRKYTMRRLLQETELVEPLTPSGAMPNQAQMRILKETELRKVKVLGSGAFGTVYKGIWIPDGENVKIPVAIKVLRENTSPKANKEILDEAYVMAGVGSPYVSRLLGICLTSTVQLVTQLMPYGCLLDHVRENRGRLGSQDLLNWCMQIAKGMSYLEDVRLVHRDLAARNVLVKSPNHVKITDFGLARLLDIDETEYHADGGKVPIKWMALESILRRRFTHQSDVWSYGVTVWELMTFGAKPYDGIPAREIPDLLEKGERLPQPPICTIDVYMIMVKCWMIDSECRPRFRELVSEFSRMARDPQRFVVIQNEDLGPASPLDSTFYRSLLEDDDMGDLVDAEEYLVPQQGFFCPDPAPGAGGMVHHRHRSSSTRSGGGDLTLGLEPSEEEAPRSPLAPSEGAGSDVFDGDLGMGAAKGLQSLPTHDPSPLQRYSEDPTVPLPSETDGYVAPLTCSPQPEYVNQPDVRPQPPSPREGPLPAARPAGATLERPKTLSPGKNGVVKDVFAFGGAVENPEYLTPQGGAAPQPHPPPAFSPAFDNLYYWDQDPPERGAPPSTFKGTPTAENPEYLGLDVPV
- experimentalProtocol: Inhibition of HER2 kinase in intact CSH12 cells; Range = 25-50 nM
- Type: cell-based
endpointLabel: IC50 (nM)
Kindly answer with a numeric value in nM, unit omitted.

So what's the measured IC50 for this one? `O=C(CCl)Nc1ccc2ncnc(Nc3cc(Cl)c(Cl)cc3F)c2c1`
50

###

- experimentalSystem: Epidermal growth factor receptor (Homo sapiens, UniProt P00533)
- Sequence (P00533 whole entry): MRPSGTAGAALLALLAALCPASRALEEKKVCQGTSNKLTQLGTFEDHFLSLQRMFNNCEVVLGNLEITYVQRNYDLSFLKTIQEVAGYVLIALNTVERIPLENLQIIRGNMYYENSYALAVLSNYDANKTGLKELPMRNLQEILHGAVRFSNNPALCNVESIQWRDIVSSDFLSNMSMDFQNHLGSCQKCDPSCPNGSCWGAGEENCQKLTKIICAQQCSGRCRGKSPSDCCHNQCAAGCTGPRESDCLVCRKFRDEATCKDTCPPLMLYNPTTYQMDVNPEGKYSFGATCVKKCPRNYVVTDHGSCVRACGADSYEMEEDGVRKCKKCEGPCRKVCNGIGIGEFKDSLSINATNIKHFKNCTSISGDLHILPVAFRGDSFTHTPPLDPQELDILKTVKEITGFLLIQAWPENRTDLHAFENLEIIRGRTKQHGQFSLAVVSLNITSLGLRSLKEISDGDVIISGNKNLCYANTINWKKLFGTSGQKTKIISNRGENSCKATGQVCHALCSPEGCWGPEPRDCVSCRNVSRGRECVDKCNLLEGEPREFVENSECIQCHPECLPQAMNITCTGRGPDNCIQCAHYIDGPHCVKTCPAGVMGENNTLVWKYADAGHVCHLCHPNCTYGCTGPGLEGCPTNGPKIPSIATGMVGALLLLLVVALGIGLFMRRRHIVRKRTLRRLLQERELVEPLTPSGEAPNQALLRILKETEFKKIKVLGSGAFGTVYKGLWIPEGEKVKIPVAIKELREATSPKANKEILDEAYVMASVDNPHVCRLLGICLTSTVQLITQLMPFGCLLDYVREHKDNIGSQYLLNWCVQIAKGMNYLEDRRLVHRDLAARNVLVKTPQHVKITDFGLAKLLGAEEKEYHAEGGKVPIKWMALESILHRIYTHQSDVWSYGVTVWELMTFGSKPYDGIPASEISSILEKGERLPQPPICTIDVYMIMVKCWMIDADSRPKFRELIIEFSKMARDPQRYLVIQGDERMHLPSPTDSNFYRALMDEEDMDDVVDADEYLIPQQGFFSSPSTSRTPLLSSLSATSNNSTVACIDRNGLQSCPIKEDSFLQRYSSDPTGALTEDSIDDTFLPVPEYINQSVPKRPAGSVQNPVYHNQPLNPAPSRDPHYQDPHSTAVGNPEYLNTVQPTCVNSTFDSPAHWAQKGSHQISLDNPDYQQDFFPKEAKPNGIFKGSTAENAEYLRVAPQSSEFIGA
- experimentalProtocol: Inhibition of EGF Receptor autophosphorylation in A431 cell lysate
pIC50: −log10 of the molar value.
A collection of molecules and their measured pIC50

{"structureNotation": "COCC(=O)Nc1ccc2ncnc(Nc3cccc(I)c3)c2c1", "value": 4.30}
{"structureNotation": "C=CC(=O)Nc1cc2c(Nc3cc(Cl)c(Cl)cc3F)ncnc2cc1N1CCN(C)CC1", "value": "< 6.30"}
{"structureNotation": "CN(C)C/C=C/C(=O)Nc1ccc2ncnc(Nc3cccc(I)c3)c2c1", "value": "> 8.30"}

Request: pIC50, test system Epidermal growth factor receptor (Homo sapiens, UniProt P00533), entry `C=CC(=O)Nc1cc2c(Nc3cccc(Br)c3)ncnc2cc1N1CCN(C)CC1`
< 6.30
